System: FluV-A
Assay: microbe, parasite or virus in culture
Type: cell-based, influenza virus A/Ishikawa/7/82 (H3N2)
Conditions: Ishikawa, read-out: EC50 FluV-A (Ishikawa)
readout-label: pEC50
In simple prose, pEC50 is minus the logarithm base ten of a concentration in moles per litre.

Query :: Under FluV-A: pEC50 value of NC(=O)c1ncn([C@@H]2O[C@H](CO)[C@@H](O)[C@H]2O)n1 [Ribavirin] ?
Result :: 5.43

* * *

Assay: in vitro
Conditions: human, hmv-2 cells
readout-label: CC50

Query :: If you can, please state the reported CC50 value of NC(=O)c1ncn([C@@H]2O[C@H](CO)[C@@H](O)[C@H]2O)n1 [Ribavirin] .
Result :: > 100 µM

* * *

Tested on: FluV-B
Test: MTT antiviral assay, FluV-B in MDCK cells
Assay type: cell-based, influenza virus B/Singapore/222/79
Settings: influenza B virus, read-out: EC50 FluV-B (Singapore)
readout-label: pEC50
In simple prose, pEC50 is minus the logarithm base ten of a concentration in moles per litre.

Query :: If you can, please state the reported pEC50 value of "NC(=O)c1ncn([C@@H]2O[C@H](CO)[C@@H](O)[C@H]2O)n1" .
Result :: 5.29

* * *

Experiment: in vitro
Conditions: human, hep-2 cells, Cytotoxicity IC50 HEp-2, Table 3; viable cell counting (parentheses)
readout-label: CC50

Query :: If you can, please state the reported CC50 value of "NC(=O)c1ncn([C@@H]2O[C@H](CO)[C@@H](O)[C@H]2O)n1" .
Result :: > 200 µM

* * *

Tested on: PFluV-2
Assay: MTT antiviral assay, parainfluenzavirus type 2 in HMV-2 cells
Format: cell-based, Greer strain
Details: Table 3, average of 3 to 4 independent experiments, read-out: EC50 PFluV-2 (Greer)
readout-label: EC50 (µM)
Please respond with the number in µM and leave the unit unwritten.

Query :: If you can, please state the reported EC50 value of "NC(=O)c1ncn([C@@H]2O[C@H](CO)[C@@H](O)[C@H]2O)n1" .
Result :: 8.9

* * *

Experiment: in vitro
Details: human, hep-2 cells, Cytotoxicity, IC50 HEp-2, Table 2
readout-label: CC50

Query :: If you can, please state the reported CC50 value of "NC(=O)c1ncn([C@@H]2O[C@H](CO)[C@@H](O)[C@H]2O)n1" .
Result :: > 50 µM

* * *

Test: in vitro
Conditions: monkey, vero cells, Cytotoxicity IC50 Vero, Table 3; MTT method
readout-label: CC50 (µM)
Please respond with the number in µM and leave the unit unwritten.

Query :: If you can, please state the reported CC50 value of "NC(=O)c1ncn([C@@H]2O[C@H](CO)[C@@H](O)[C@H]2O)n1" .
Result :: 100

* * *

System: PFluV-3
Assay: MTT antiviral assay, parainfluenzavirus type 3 in Vero cells
Type: cell-based, C243 strain
Settings: Table 3, average of 3 to 4 independent experiments, read-out: EC50 PFluV-3 (C243)
readout-label: pEC50
In simple prose, pEC50 is minus the logarithm base ten of a concentration in moles per litre.

Query :: If you can, please state the reported pEC50 value of NC(=O)c1ncn([C@@H]2O[C@H](CO)[C@@H](O)[C@H]2O)n1 [Ribavirin] .
Result :: 4.76

* * *

System: MLSV
Test: microbe, parasite or virus in culture
Assay type: cell-based, Measles virus (MLSV) Edmonston strain
Settings: Measles morbillivirus, HMV-2, read-out: Antiviral activity, EC50 MLSV
readout-label: EC50 (µM)
Please respond with the number in µM and leave the unit unwritten.

Query :: If you can, please state the reported EC50 value of NC(=O)c1ncn([C@@H]2O[C@H](CO)[C@@H](O)[C@H]2O)n1 [Ribavirin] .
Result :: 5.2

* * *

Assay: in vitro
Settings: human, hep-2 cells, Cytotoxicity IC50 HEp-2, Table 3; MTT method
readout-label: CC50 (µM)
Please respond with the number in µM and leave the unit unwritten.

Query :: If you can, please state the reported CC50 value of "NC(=O)c1ncn([C@@H]2O[C@H](CO)[C@@H](O)[C@H]2O)n1" .
Result :: 52.7

* * *

Assay: in vitro
Conditions: dog, mdck, Cytotoxicity IC50 MDCK, Table 3; MTT method
readout-label: CC50

Query :: If you can, please state the reported CC50 value of "NC(=O)c1ncn([C@@H]2O[C@H](CO)[C@@H](O)[C@H]2O)n1" .
Result :: > 200 µM

Measured values drawn from patent US5824706A for this set.
